Please provide measured MIC for the entries that follow.
test system: Staphylococcus aureus; experiment: Antibacterial activity against methicillin-resistant Staphylococcus aureus ATCC 700699 by broth microdilution method; assay type: functional; conditions: Mu50
# number only, unit µg/mL dropped from output

q: What value of MIC has been reported for the following molecule? O=c1c2ccccc2sn1-c1ccccc1F
a: 6.25

q: Try this molecule next: O=c1c2ccccc2sn1-c1cccc(Cl)c1
a: 3.12

q: Try this molecule next: O=c1c2ccccc2sn1C1CCCCC1
a: 2.5

* * *

Please provide measured IC50 for the entries that follow.
tested on: Staphylococcus aureus; assay: Antibacterial activity against Staphylococcus aureus ATCC 25923 by broth microdilution method; assay type: functional
# number only, unit µg/mL dropped from output

q: What value of IC50 has been reported for the following compound? COC(=O)[C@H](C)NC(=O)[C@H](C)n1sc2ccccc2c1=O
a: 3.6

q: Try this compound next: COC(=O)[C@H](C(C)C)n1sc2ccccc2c1=O
a: 2.4

q: Try this compound next: O=c1c2ccccc2sn1-c1ccccc1-n1sc2ccccc2c1=O
a: 10

q: Try this compound next: COC(=O)[C@H](c1ccccc1)n1sc2ccccc2c1=O
a: 1.1

q: Try this compound next: CC(Cn1sc2ccccc2c1=O)n1sc2ccccc2c1=O (stereo not drawn)
a: 6.1

q: Try this compound next: COC(=O)[C@H](CC(C)C)n1sc2ccccc2c1=O
a: 2.1

q: Try this compound next: COC(=O)[C@H](C)n1sc2ccccc2c1=O
a: 2

q: Try this compound next: COc1ccccc1-n1sc2ccccc2c1=O
a: 1

* * *

tested on: Trichophyton mentagrophytes; experiment: Anti-fungal activity against Trichophyton mentagrophytes after 48 hrs by broth microdilution method; type: functional
property: IC50

q: What value of IC50 has been reported for the following compound? C[C@@H](c1ccccc1)n1sc2ccccc2c1=O
a: 0.7 µg/mL

q: Try this compound next: COC(=O)[C@H](c1ccccc1)n1sc2ccccc2c1=O
a: > 50 µg/mL

q: Try this compound next: CC(C)Cn1sc2ccccc2c1=O
a: > 50 µg/mL

q: Try this compound next: COc1ccc(-n2sc3ccccc3c2=O)cc1
a: > 50 µg/mL

* * *

system: Staphylococcus aureus; assay: Antibacterial activity against Staphylococcus aureus ATCC 25923 by broth microdilution method; assay type: functional
Response field label: string, one of true (1) (MIC strictly below 2 µg/mL) or false (0).

q: Below 2 µg/mL on MIC? Entry Cc1ccc(-n2sc3ccccc3c2=O)cc1
a: true (1)

q: Try this compound next: O=c1c2ccccc2sn1CCn1sc2ccccc2c1=O
a: false (0)

q: Try this compound next: Nc1ccccc1-n1sc2ccccc2c1=O
a: false (0)

q: Try this compound next: CC(C)Cn1sc2ccccc2c1=O
a: false (0)

q: Try this compound next: COc1ccc(-n2sc3ccccc3c2=O)cc1
a: true (1)

q: Try this compound next: O=c1c2ccccc2sn1-c1ccccc1
a: true (1)

* * *

Please provide measured log10 of MIC for the entries that follow.
tested on: Aspergillus fumigatus; test: Anti-fungal activity against Aspergillus fumigatus after 48 hrs by broth microdilution method; format: functional
Quick note: numbers are log10 of MIC, with µg/mL as the unit.

q: What value of log10 of MIC has been reported for the following compound? O=c1c2ccccc2sn1Cc1ccc2c(c1)OCO2
a: 0.23

q: Try this compound next: CC(Cn1sc2ccccc2c1=O)n1sc2ccccc2c1=O (stereo not drawn)
a: 1.10

q: Try this compound next: O=c1c2ccccc2sn1-c1cccc2ccccc12
a: 1.70

q: Try this compound next: O=c1c2ccccc2sn1-c1cccc(C(F)(F)F)c1
a: 1.40

q: Try this compound next: CC(C)Cn1sc2ccccc2c1=O
a: 0.41

q: Try this compound next: O=c1c2ccccc2sn1-c1cccc(Cl)c1
a: 1.40

q: Try this compound next: O=c1c2ccccc2sn1C1CCCCC1
a: 0.57

q: Try this compound next: O=c1c2ccccc2sn1-c1ccccc1I
a: 1.70
